TEST: Additive decomposition of peak excitation and emission wavelengths (model coefficients of A and B groups)
RUN_PARAMETERS: influence of B group on peak emission wavelength, B group 1 as baseline
MEASURED_ENDPOINT: βj^em (nm)

Cc1cc[n+](C)c(Br)c1.[I-] [B group 6]    3.5
Cc1cc[n+](C)cc1.[I-] [B group 1]    0.0

I: Cc1cccc[n+]1C.[I-] [B group 3]
II: COc1ccc2c(ccc(C)[n+]2C)c1.[I-] [B group 9]
(Q) Sorting ascending by βj^em, which comes first: I or II ? Field: selected label. Fill in the label of the entry you choose.
(A) I

----------
Tested on: HeLa cells
TEST: Kinetic imaging of NBD-triazine probe uptake and sequestration, fitted to nested two-compartment transport model
Assay type: cell-based
RUN_PARAMETERS: median over optimal solutions within 5% of the best fit
MEASURED_ENDPOINT: median Pap(cyto) (apparent partition coefficient between extracellular medium and cytosol)

COc1cccc(CNc2nc(NCCCCCCNc3ccc([N+](=O)[O-])c4nonc34)nc(NC3CCCCC3C)n2)c1OC (stereo not shown)    5.12
CC(C)CCNc1nc(NCCCCCCNc2ccc([N+](=O)[O-])c3nonc23)nc(NCc2ccccc2)n1    3.75
COc1cccc(CNc2nc(NCCCCCCNc3ccc([N+](=O)[O-])c4nonc34)nc(NC3CCCCC3)n2)c1    12.22
COc1ccc(CNc2nc(NCCCCCCNc3ccc([N+](=O)[O-])c4nonc34)nc(NCCC(C)C)n2)cc1    8.56
CC(C)Nc1nc(NCCCCCCNc2ccc([N+](=O)[O-])c3nonc23)nc(NCc2ccccc2)n1    13.18
CCCCNc1nc(NCCCCCCNc2ccc([N+](=O)[O-])c3nonc23)nc(NCc2cccc(OC)c2)n1    262.28
CC1CCC(Nc2nc(NCCCCCCNc3ccc([N+](=O)[O-])c4nonc34)nc(NCc3cccc(F)c3)n2)CC1 (stereo not shown)    11.91
COc1ccc(CCNc2nc(NCCCCCCNc3ccc([N+](=O)[O-])c4nonc34)nc(NCCc3ccccc3)n2)cc1    9.41

a: O=[N+]([O-])c1ccc(NCCCCCCNc2nc(NCc3cccc(F)c3)nc(NCC3CCCCC3)n2)c2nonc12
b: Cc1ccc(CNc2nc(NCCCCCCNc3ccc([N+](=O)[O-])c4nonc34)nc(NC3CCCCC3)n2)cc1
(Q) Which of the two items, a and b , has the greater recorded median Pap(cyto) (apparent partition coefficient between extracellular medium and cytosol)? Field: selected label. Fill in the label of the entry you choose.
(A) a

----------
Each item that follows carries a reported βj^mito.
System: mitochondria
TEST: QSLR factorial logistic regression of mitochondrial localization (affinity coefficients, cross-validated prediction)
Parameters: species or system human
RUN_PARAMETERS: influence of B group on mitochondrial localization
// no unit string in output, number only

Check out these entries, answers already filled in.
Cc1cc[n+](C23CC4CC(CC(C4)C2)C3)cc1.[Br-]    2.0
Cc1cc[n+](C)cc1.[I-]    1.9

(Q) Which measured βj^mito value corresponds to "Cc1cc[n+](C)c(Br)c1.[I-]" ?
(A) −5.0

(Q) Which measured βj^mito value corresponds to "CCc1ccc(C)[n+](C)c1.[I-]" ?
(A) 2.2

(Q) Which measured βj^mito value corresponds to "Cc1ccnc(-c2cc(C)cc[n+]2C)c1.[I-]" ?
(A) 0.8

(Q) Which measured βj^mito value corresponds to "Cc1cccc(C)[n+]1C.[I-]" ?
(A) 2.7
